METHOD SUMMARY: Solubility of the mesylate salt in different aqueous media (Example 7)
Assay type: physicochemical
CONDITION: saline or isotonic, thermodynamic from solid; 5% glucose solution pH 7
Counter-ions that a name gives are not always drawn.
QUANTITY MEASURED: solubility (mg/mL)
Record the value in mg/mL, omitting the unit from your answer.

Lookup: Need solubility of CCNC(=O)c1noc(-c2cc(C(C)C)c(O)cc2O)c1-c1ccc(CN2CCOCC2)cc1 [mesylate salt] , thanks.
Found: 37.5

* * *

METHOD SUMMARY: Solubility of the mesylate salt in different aqueous media (Example 7)
Format: physicochemical
CONDITION: pH 3.6, thermodynamic from solid; Water (pH of the saturated solution=3.6)
Counter-ions that a name gives are not always drawn.
QUANTITY MEASURED: solubility (mg/mL)
Numbers only here, please. The scale is mg/mL.

Lookup: If you can, please state the reported solubility value of CCNC(=O)c1noc(-c2cc(C(C)C)c(O)cc2O)c1-c1ccc(CN2CCOCC2)cc1 [mesylate salt] .
Found: 37.5

* * *

METHOD SUMMARY: Solubility of the free base and its salts (description)
Type: physicochemical
CONDITION: pH 5, aqueous buffer, pH 5; read-out: solubility at pH 5
Counter-ions that a name gives are not always drawn.
QUANTITY MEASURED: solubility

Lookup: Looking for the measured solubility of CCNC(=O)c1noc(-c2cc(C(C)C)c(O)cc2O)c1-c1ccc(CN2CCOCC2)cc1 [mesylate salt] , can you help?
Found: 1000 to 2500 µg/mL

* * *

METHOD SUMMARY: Solubility of the mesylate salt in different aqueous media (Example 7)
Format: physicochemical
CONDITION: saline or isotonic, thermodynamic from solid; 5% glucose solution pH 4
Structures can show the parent of a compound that is named as a salt.
QUANTITY MEASURED: solubility

Lookup: Find the recorded solubility belonging to CCNC(=O)c1noc(-c2cc(C(C)C)c(O)cc2O)c1-c1ccc(CN2CCOCC2)cc1 [mesylate salt] and report it.
Found: 35.6 mg/mL

* * *

METHOD SUMMARY: Solubility of the mesylate salt in different aqueous media (Example 7)
Format: physicochemical
CONDITION: aqueous buffer, thermodynamic from solid; buffer pH 4.0 (acetate buffer)
Where a name gives a salt, the structure may show the parent alone.
QUANTITY MEASURED: solubility (mg/mL)
Only the number, expressed in mg/mL, is required.

Lookup: Item CCNC(=O)c1noc(-c2cc(C(C)C)c(O)cc2O)c1-c1ccc(CN2CCOCC2)cc1 [mesylate salt] has what recorded solubility?
Found: 14.6

* * *

METHOD SUMMARY: Solubility of the mesylate salt in different aqueous media (Example 7)
Type: physicochemical
CONDITION: aqueous buffer, thermodynamic from solid; buffer pH 5.0 (acetate buffer)
Structures can show the parent of a compound that is named as a salt.
QUANTITY MEASURED: solubility (µg/mL)
Supply the numeric figure in µg/mL, leaving out any unit text.

Lookup: Request the reported solubility associated with CCNC(=O)c1noc(-c2cc(C(C)C)c(O)cc2O)c1-c1ccc(CN2CCOCC2)cc1 [mesylate salt]
Found: 3200

* * *

METHOD SUMMARY: Solubility of the mesylate salt in different aqueous media (Example 7)
Format: physicochemical
CONDITION: aqueous buffer, thermodynamic from solid; buffer pH 6.0 (phosphate buffer)
Structures can show the parent of a compound that is named as a salt.
QUANTITY MEASURED: solubility (µg/mL)
Response body: numeric value in µg/mL, unit text excluded.

Lookup: Using the record for CCNC(=O)c1noc(-c2cc(C(C)C)c(O)cc2O)c1-c1ccc(CN2CCOCC2)cc1 [mesylate salt] , report its solubility.
Found: 600
